EXPERIMENTAL SYSTEM: human SCD5 (Homo sapiens)
Construct: expressed in transfected cells; host or cells: yeast strain with OLE1 deleted, plasmid-borne human SCD5 (selected in SD-Ura)
Sequence (Q86SK9 whole entry): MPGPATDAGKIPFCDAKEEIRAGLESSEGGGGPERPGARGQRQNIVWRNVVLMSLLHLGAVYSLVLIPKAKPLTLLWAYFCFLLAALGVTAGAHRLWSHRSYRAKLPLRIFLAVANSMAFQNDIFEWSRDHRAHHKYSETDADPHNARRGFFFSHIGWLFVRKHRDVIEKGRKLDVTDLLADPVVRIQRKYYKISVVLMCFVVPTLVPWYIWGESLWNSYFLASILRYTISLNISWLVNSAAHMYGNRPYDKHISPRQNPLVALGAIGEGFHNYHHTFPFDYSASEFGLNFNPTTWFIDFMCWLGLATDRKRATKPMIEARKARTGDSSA
ASSAY PROTOCOL: Growth inhibition of yeast strain expressing human SCD5 as sole desaturase (OLE1 deleted), OD600 readout
Assay type: cell-based
CONDITION PARAMETERS: yeast strain expressing human SCD5 as sole desaturase; growth (OD600) after 40 h at 30° C.; read-out: SCD5 IC50
pIC50: −log10 of the molar value.
EXPERIMENTAL READOUT: pIC50

{"columns": ["SMILES REPR", "EXPERIMENTAL SYSTEM", "pIC50"],
 "data": [
  ["Cn1nc(C(=O)Nc2nc(Cl)c(Cc3cccc(F)c3)s2)ccc1=O", "human SCD5 (Homo sapiens)", 7.15],
  ["Cn1nc(C(=O)Nc2ccc(CNc3cccc(Cl)c3)cn2)ccc1=O", "human SCD5 (Homo sapiens)", 7.10],
  ["Cc1cc(C(=O)Nc2ccc(Cc3cccc(F)c3)cn2)nn(C)c1=O", "human SCD5 (Homo sapiens)", 6.82],
  ["CCn1cc(C(=O)Nc2ccc(Cc3cccc(F)c3)cn2)cn1", "human SCD5 (Homo sapiens)", 6.80],
  ["N#Cc1cc(Cl)cc(Cc2ccc(NC(=O)c3cnc(C#N)cn3)nc2)c1", "human SCD5 (Homo sapiens)", 7.10],
  ["Cc1ncc(C(=O)Nc2ccc(Cc3cccc(F)c3)cn2)cn1", "human SCD5 (Homo sapiens)", 6.80],
  ["Cn1c(C(=O)Nc2ccc(Cc3cc(F)cc(F)c3)cn2)coc1=O", "human SCD5 (Homo sapiens)", 6.92]
]}
